target or test system: T1, recombinant human CD70 protein (Acrobiosystems: CDL-H82Q9) (human, UniProt P32970 39-193)
T1 construct: Bought from Acrobiosystems; The whole natural entry is named; also called human CD70His fusion protein; recombinant human CD70 antigen having a C-terminal human IgG Fc tag
T1 sequence (looked up): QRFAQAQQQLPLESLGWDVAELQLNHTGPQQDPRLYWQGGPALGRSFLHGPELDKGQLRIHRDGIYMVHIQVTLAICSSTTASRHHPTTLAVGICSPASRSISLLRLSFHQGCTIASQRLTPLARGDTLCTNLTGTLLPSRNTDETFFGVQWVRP
protocol text: flow cytometry: CAR on CD70-knockout T cells stained with biotinylated human CD70 protein (100 µg/ml) and PE-Streptavidin
property measured: POS (% of cells in the CD70-PE positive gate)
# do not omit the unit; it follows the number

For orientation, consider the following solved cases.
binder="CD70KO-CAR-1G (receptor, The sheet names the CD70-knockout T cells that carry CD70-CAR-1G; also called CD70-CAR-1G) chimeric antigen receptor chain: QLQLVESGGGLVQLGGSLTLSCTASGIIFNSDYVGWYRQAPGSDRELVALTSNMRTNYADSVEGRFTISRDNAKNTVYLQMNSLKPEDTAVYYCNVNRMTSYGPRDYWGQGTQVTVSSTTTPAPRPPTPAPTIASQPLSLRPEACRPAAGGAVHTRGLDFACDIYIWAPLAGTCGVLLLSLVITLYCKRGRKKLLYIFKQPFMRPVQTTQEEDGCSCRFPEEEEGGCELRVKFSRSADAPAYKQGQNQLYNELNLGRREEYDVLDKRRGRDPEMGGKPRRKNPQEGLYNELQKDKMAEAYSEIGMKGERRRGKGHDGLYQGLSTATKDTYDALHMQALPPR" result=57.5%
binder="CD70KO-CAR-5H (receptor, The sheet names the CD70-knockout T cells that carry CD70-CAR-5H; also called CD70-CAR-5H) chimeric antigen receptor chain: EVQLVESGGGMVQAGGSLRLSCAAPGKIFSFYFMGWYRQAPGKQRELVALITGDGRTNYADSVEGRFTISRDNAKNTVYLQMNSLKPEDTAVYYCYADVFARAGRDEYWGQGTQVSVSSTTTPAPRPPTPAPTIASQPLSLRPEACRPAAGGAVHTRGLDFACDIYIWAPLAGTCGVLLLSLVITLYCKRGRKKLLYIFKQPFMRPVQTTQEEDGCSCRFPEEEEGGCELRVKFSRSADAPAYKQGQNQLYNELNLGRREEYDVLDKRRGRDPEMGGKPRRKNPQEGLYNELQKDKMAEAYSEIGMKGERRRGKGHDGLYQGLSTATKDTYDALHMQALPPR" result=58.9%
binder="CD70KO-CAR-5A (receptor, The sheet names the CD70-knockout T cells that carry CD70-CAR-5A; also called CD70-CAR-5A) chimeric antigen receptor chain: EVQLVESGGGLVQAGGSLRLSCAASESIFNNYVMAWYRQPPGKQREAVAQISTDGSAYYQDRVKGRFTISRDNAKNLVNLQMSSLKPEDTAVYYCTAGLQYWGQGTQVTVSSTTTPAPRPPTPAPTIASQPLSLRPEACRPAAGGAVHTRGLDFACDIYIWAPLAGTCGVLLLSLVITLYCKRGRKKLLYIFKQPFMRPVQTTQEEDGCSCRFPEEEEGGCELRVKFSRSADAPAYKQGQNQLYNELNLGRREEYDVLDKRRGRDPEMGGKPRRKNPQEGLYNELQKDKMAEAYSEIGMKGERRRGKGHDGLYQGLSTATKDTYDALHMQALPPR" result=74.9%

# next binder below
Indicate the recorded POS (% of cells in the CD70-PE positive gate) value for this binder: CD70KO-CAR-L1 (receptor, The sheet names the CD70-knockout T cells that carry CD70-CAR-L1; also called CD70-CAR-L1) chimeric antigen receptor chain: EVQVVESGGGLVQAGGSLRLSCAASGRTFSSYAMGWVRQAPGKDQEFVAAINWSDGSTYYADSVKGRFTIARDNAKNTAFLQMNSLKPEDTAVYYCAAGCCGVADAPLNALDAWGQGTLVTVSSTTTPAPRPPTPAPTIASQPLSLRPEACRPAAGGAVHTRGLDFACDIYIWAPLAGTCGVLLLSLVITLYCKRGRKKLLYIFKQPFMRPVQTTQEEDGCSCRFPEEEEGGCELRVKFSRSADAPAYKQGQNQLYNELNLGRREEYDVLDKRRGRDPEMGGKPRRKNPQEGLYNELQKDKMAEAYSEIGMKGERRRGKGHDGLYQGLSTATKDTYDALHMQALPPR
82.5%
